- Study system: Protein Rev (Human immunodeficiency virus type 1 group M subtype B (isolate WMJ22))
- Test summary: disruptors of Rev peptide-RRE RNA complex – biochemical, FRET, protein-RNA interaction, primary screen (AID 704)
- Run parameters: Rev peptide-RRE RNA binding, at 8 µM
Screen size: about 97,000 compounds; about 770 (0.79%) were called active.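 How the source made its calls: active means inhibition above the screen-wide mean plus 3 SD (cut at about 35% in these data); inactive means the rest.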 The entries come from a sample that favours actives as a whole.
Classes used: active, inactive

> print(dat)
                                    compound                              study.system       cat
 1           Clc1ccc(-n2nnnc2CN2CCCCC2)cc1Cl  Protein Rev (Human immunodeficiency virus type 1 group M subtype B (isolate WMJ22))  inactive
 2  Cc1cc2c(c(=O)n1Cc1ccco1)C(c1ccccc1)C(C#N)=C(N)O2 (centres undefined)  Protein Rev (Human immunodeficiency virus type 1 group M subtype B (isolate WMJ22))  inactive
 3  CCOC(=O)c1c(NC(=S)Nc2ccccc2)sc2c1CCN(C)C2  Protein Rev (Human immunodeficiency virus type 1 group M subtype B (isolate WMJ22))    active
 4  CN1OC(COC(=O)c2ccc(Cl)cc2)CC1c1ccccc1 (centres undefined)  Protein Rev (Human immunodeficiency virus type 1 group M subtype B (isolate WMJ22))  inactive
 5  COC(=O)C1=C(C)NC2=C(C(=O)c3ccccc32)C1c1ccc(-c2ccc(C(=O)O)cc2)o1 (centres undefined)  Protein Rev (Human immunodeficiency virus type 1 group M subtype B (isolate WMJ22))    active
 6  CS(=O)(=O)c1ccc2c(c1)SC1=NC(=O)/C(=C/c3ccco3)C(=N)N12  Protein Rev (Human immunodeficiency virus type 1 group M subtype B (isolate WMJ22))    active
 7  O=c1c2ccccc2c(-c2ccc(Br)cc2)nn1Cc1ccccc1  Protein Rev (Human immunodeficiency virus type 1 group M subtype B (isolate WMJ22))  inactive
 8                 O=C(NCCOc1ccccc1)c1ccccc1  Protein Rev (Human immunodeficiency virus type 1 group M subtype B (isolate WMJ22))  inactive
 9  COc1ccc([N+](=O)[O-])cc1NC(=O)CCc1ccccc1  Protein Rev (Human immunodeficiency virus type 1 group M subtype B (isolate WMJ22))  inactive
10  O=C(C1=C(O)C(=O)N(Cc2ccccc2)C1c1cccnc1)c1ccco1 (centres undefined)  Protein Rev (Human immunodeficiency virus type 1 group M subtype B (isolate WMJ22))  inactive
11  COc1ccc(-n2nnnc2SCc2nc(N)nc(N3CCOCC3)n2)cc1  Protein Rev (Human immunodeficiency virus type 1 group M subtype B (isolate WMJ22))  inactive
12  CC1CCN(C(=O)CN(c2ccc(Oc3ccccc3)cc2)S(C)(=O)=O)CC1  Protein Rev (Human immunodeficiency virus type 1 group M subtype B (isolate WMJ22))  inactive
13  Cc1ccc(C)c(NC(=O)C2Cc3ccccc3CN2C(=O)OCc2ccccc2)c1 (centres undefined)  Protein Rev (Human immunodeficiency virus type 1 group M subtype B (isolate WMJ22))  inactive
14  OC(COCCC12CC3CC(CC(C3)C1)C2)CN1CCCCC1 (centres undefined)  Protein Rev (Human immunodeficiency virus type 1 group M subtype B (isolate WMJ22))  inactive
15        Cc1nnc(NC(=O)Cn2c(=O)sc3ccccc32)s1  Protein Rev (Human immunodeficiency virus type 1 group M subtype B (isolate WMJ22))  inactive
16  Cc1cccc(NC(=O)CSc2nc3c(c(=O)[nH]2)CCCC3)c1C  Protein Rev (Human immunodeficiency virus type 1 group M subtype B (isolate WMJ22))  inactive
17  Fc1ccccc1/C=C1\CCCC2=C1Nc1ncnn1C2c1ccccc1F (centres undefined)  Protein Rev (Human immunodeficiency virus type 1 group M subtype B (isolate WMJ22))  inactive
18  CCC(C)n1c(-c2cc(OC)c(OC)c(OC)c2)nc2nc3ccccc3nc21 (centres undefined)  Protein Rev (Human immunodeficiency virus type 1 group M subtype B (isolate WMJ22))  inactive
19    COc1cccc(OC)c1C(=O)Nc1ccc(N2CCCCC2)cc1  Protein Rev (Human immunodeficiency virus type 1 group M subtype B (isolate WMJ22))  inactive
20     O=C(c1cc2c(s1)CCC2)N1CCN(c2ccccc2)CC1  Protein Rev (Human immunodeficiency virus type 1 group M subtype B (isolate WMJ22))  inactive
21  CC(C)C[C@@H](N)c1nnc(SCC(=O)c2ccc(Cl)cc2)o1  Protein Rev (Human immunodeficiency virus type 1 group M subtype B (isolate WMJ22))  inactive
22  COc1ccc(C2C=C(c3ccc(Br)cc3)Nc3nc(NS(C)(=O)=O)nn32)cc1 (centres undefined)  Protein Rev (Human immunodeficiency virus type 1 group M subtype B (isolate WMJ22))    active
23  O=C1COc2ccc(NC(=O)N3CCN(c4ccc(F)cc4)CC3)cc2N1  Protein Rev (Human immunodeficiency virus type 1 group M subtype B (isolate WMJ22))  inactive
24  C=CCC(NCc1ccco1)c1ccc(OC)cc1 (centres undefined)  Protein Rev (Human immunodeficiency virus type 1 group M subtype B (isolate WMJ22))  inactive
25  Cc1cccc(COc2ccccc2/C=N/Nc2ccc([N+](=O)[O-])cc2)c1  Protein Rev (Human immunodeficiency virus type 1 group M subtype B (isolate WMJ22))    active
26  Cc1ccc(-c2nnc(-n3nnc4ccccc43)c3ccccc23)cc1  Protein Rev (Human immunodeficiency virus type 1 group M subtype B (isolate WMJ22))  inactive
27  CC(CO)N1CCS(=O)(=O)CC1 (centres undefined)  Protein Rev (Human immunodeficiency virus type 1 group M subtype B (isolate WMJ22))  inactive
28  COc1ccccc1NC(=O)C1=C(C)NC2=C(C(=O)CCC2)C1c1ccc(C)o1 (centres undefined)  Protein Rev (Human immunodeficiency virus type 1 group M subtype B (isolate WMJ22))  inactive
29  COc1cccc(/C=N/NC(=O)c2cccc([N+](=O)[O-])c2)c1OS(=O)(=O)c1ccc(C)cc1  Protein Rev (Human immunodeficiency virus type 1 group M subtype B (isolate WMJ22))  inactive
30  CN(c1ccccc1)c1ccc(/C=c2\s/c(=C(/C#N)C(=O)C(C)(C)C)n(Cc3ccco3)c2=O)cc1  Protein Rev (Human immunodeficiency virus type 1 group M subtype B (isolate WMJ22))    active
31  Cc1cccc(N(C(=O)c2ccc(CN3CCOCC3)o2)C(C(=O)NC2CCCCC2)c2ccc(F)cc2)c1 (centres undefined)  Protein Rev (Human immunodeficiency virus type 1 group M subtype B (isolate WMJ22))  inactive
32    COc1cc(C(=O)NC(=S)NCc2ccco2)cc(OC)c1OC  Protein Rev (Human immunodeficiency virus type 1 group M subtype B (isolate WMJ22))  inactive
33  CCOc1ccc(C(O)Cc2nc3ccccc3n2C)cc1 (centres undefined)  Protein Rev (Human immunodeficiency virus type 1 group M subtype B (isolate WMJ22))  inactive
34        Cc1c(-c2ccccc2)cn2c1-c1ccc(C)n1CC2  Protein Rev (Human immunodeficiency virus type 1 group M subtype B (isolate WMJ22))    active
35  Cn1c(SCC(=O)N2CCCc3ccccc32)nc2ccccc2c1=O  Protein Rev (Human immunodeficiency virus type 1 group M subtype B (isolate WMJ22))  inactive
36       Cc1nn(CCOc2ccccc2)c(=O)n1-c1ccccc1F  Protein Rev (Human immunodeficiency virus type 1 group M subtype B (isolate WMJ22))  inactive
37  OC(COc1ccc2c(c1)CCC2)CN1CCN(c2cccc(Cl)c2)CC1 (centres undefined)  Protein Rev (Human immunodeficiency virus type 1 group M subtype B (isolate WMJ22))  inactive
38  CC(=O)Nc1ccc(S(=O)(=O)N2CCN(C(=O)c3ccccc3F)CC2)cc1  Protein Rev (Human immunodeficiency virus type 1 group M subtype B (isolate WMJ22))  inactive
39  COc1ccc(C2CC(c3ccc(C)cc3)Nc3nc(N)nn32)cc1 (centres undefined)  Protein Rev (Human immunodeficiency virus type 1 group M subtype B (isolate WMJ22))  inactive
